assayTarget: Muscarinic acetylcholine receptor M1 (Homo sapiens, UniProt P11229)
Sequence (P11229 whole entry): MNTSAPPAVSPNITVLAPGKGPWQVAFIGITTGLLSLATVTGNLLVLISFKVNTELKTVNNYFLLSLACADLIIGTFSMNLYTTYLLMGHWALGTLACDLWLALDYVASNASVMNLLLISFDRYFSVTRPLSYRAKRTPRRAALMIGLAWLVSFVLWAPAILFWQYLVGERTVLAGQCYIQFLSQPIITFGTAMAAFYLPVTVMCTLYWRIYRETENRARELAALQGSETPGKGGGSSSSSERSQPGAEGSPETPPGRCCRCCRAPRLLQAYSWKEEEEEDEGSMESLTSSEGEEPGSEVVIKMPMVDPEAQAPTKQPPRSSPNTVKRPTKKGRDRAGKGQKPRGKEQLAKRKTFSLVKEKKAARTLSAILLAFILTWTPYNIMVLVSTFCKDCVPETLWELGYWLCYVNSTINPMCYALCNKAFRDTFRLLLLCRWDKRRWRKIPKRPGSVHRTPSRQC
testName: Positive allosteric modulation of human muscarinic M1 receptor expressed in CHO cells assessed as basal and acetylcholine-stimulated Ca2+ level by FLIPR assay
pEC50: −log10 of the molar value.
measure: pEC50

>>> df
                               samplesmiles   val
0  Cn1cc(-c2ccc(Cn3cc(C(=O)N[C@H]4CCOC[C@@H]4O)c4ncccc43)c(F)c2)cn1  7.55
1  CNC(=O)c1ccc(Cn2cc(C(=O)N[C@H]3COCC[C@@H]3O)c3ncccc32)cc1  8.04
2  Cn1cc(-c2ccc(Cn3cc(C(=O)N[C@H]4COCC[C@@H]4O)c4ncccc43)cc2F)cn1  7.81
3  Cn1cc(-c2ccc(Cn3cc(C(=O)N[C@H]4COCC[C@@H]4O)c4ncccc43)cc2)cn1  7.95
4  Cn1cc(-c2ccc(Cn3cc(C(=O)N[C@H]4CCOC[C@@]4(C)O)c4ncccc43)c(F)c2)cn1  7.32
5  Cn1cc(-c2ccc(Cn3cc(C(=O)N[C@H]4COCC[C@@H]4O)c4ncccc43)cn2)cn1  7.46
6  Cn1ncc2cc(Cn3cc(C(=O)N[C@H]4COCC[C@@H]4O)c4ncccc43)ccc21  7.15
